target: JAK3 (Homo sapiens); assay: JAK3 kinase ADP-Glo assay (Example 60)
Sequence (P52333 795-1124 limits assumed): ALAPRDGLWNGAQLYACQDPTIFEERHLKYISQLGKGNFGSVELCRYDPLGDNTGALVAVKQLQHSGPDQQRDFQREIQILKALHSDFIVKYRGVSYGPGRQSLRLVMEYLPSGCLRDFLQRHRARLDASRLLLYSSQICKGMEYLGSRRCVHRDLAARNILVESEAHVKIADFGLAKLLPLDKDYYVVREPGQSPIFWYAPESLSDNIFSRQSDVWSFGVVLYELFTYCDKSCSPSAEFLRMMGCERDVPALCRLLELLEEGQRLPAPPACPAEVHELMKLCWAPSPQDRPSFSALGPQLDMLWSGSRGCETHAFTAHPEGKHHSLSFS
Below, each of the compounds is paired with its reported pIC50 value.
Scale explanation: pIC50 corresponds to minus log10 of a concentration expressed in moles per litre.

Look over these answered cases.
CCc1cc(O)c(F)cc1-c1ccc2c(-c3nc4c([nH]3)CN(C(=O)N3CC[C@@H](O)C3)C4)n[nH]c2c1 = 9.57
CCc1cc(O)c(F)cc1-c1ccc2c(-c3nc4c([nH]3)CN(C(=O)c3ccnnc3)C4)n[nH]c2c1 = 9.45
CCc1cc(O)c(F)cc1-c1ccc2c(-c3nc4c([nH]3)CN(C(=O)N3CCC(O)CC3)C4)n[nH]c2c1 = 9.51
CCc1cc(O)c(F)cc1-c1ccc2c(-c3nc4c([nH]3)CN(C(=O)C(C)C)C4)n[nH]c2c1 = 9.25

[Q] Give its pIC50 value. Item: `CCc1cc(O)c(F)cc1-c1ccc2c(-c3nc4c([nH]3)CN(C(=O)[C@@H]3CCCN3)C4)n[nH]c2c1`
[A] 8.91

[Q] Give its pIC50 value. Item: `CCc1cc(O)c(F)cc1-c1ccc2c(-c3nc4c([nH]3)CN(C(=O)c3cccnn3)C4)n[nH]c2c1`
[A] 9.51

[Q] Give its pIC50 value. Item: `CCc1cc(O)c(F)cc1-c1ccc2c(-c3nc4c([nH]3)CN(S(=O)(=O)C3CCCC3)C4)n[nH]c2c1`
[A] 8.50

----------
Molecular target: TYK2 (Homo sapiens, UniProt P29597)
Sequence (P29597 871-1187 limits assumed): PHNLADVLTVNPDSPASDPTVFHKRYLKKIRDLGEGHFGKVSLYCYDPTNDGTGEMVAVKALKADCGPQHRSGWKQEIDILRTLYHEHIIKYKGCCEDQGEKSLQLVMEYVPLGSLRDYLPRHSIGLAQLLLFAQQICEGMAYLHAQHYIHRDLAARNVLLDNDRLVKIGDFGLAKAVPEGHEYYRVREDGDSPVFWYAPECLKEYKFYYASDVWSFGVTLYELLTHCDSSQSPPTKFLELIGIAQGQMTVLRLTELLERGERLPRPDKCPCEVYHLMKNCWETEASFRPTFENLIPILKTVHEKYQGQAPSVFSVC
Experiment: TYK2 kinase ADP-Glo assay (Example 60)
measurement-type: IC50 (nM)
Value expressed in nM; do not type the unit.

Look over these answered cases.
CCc1cc(O)c(F)cc1-c1ccc2c(-c3nc4c([nH]3)CN(C(=O)c3ccnnc3)C4)n[nH]c2c1 [MDI-214] = 2.8
CCc1cc(O)c(F)cc1-c1ccc2c(-c3nc4c([nH]3)CN(C(=O)c3cccnn3)C4)n[nH]c2c1 [MDI-215] = 1.58
CCc1cc(O)c(F)cc1-c1ccc2c(-c3nc4c([nH]3)CN(S(=O)(=O)C3CCC3)C4)n[nH]c2c1 [MDI-219] = 1.88
CCc1cc(O)c(F)cc1-c1ccc2c(-c3nc4c([nH]3)CN(C(=O)N3CCCC3)C4)n[nH]c2c1 [MDI-231] = 1.31
CCc1cc(O)c(F)cc1-c1ccc2c(-c3nc4c([nH]3)CN(C(=O)OC)C4)n[nH]c2c1 [MDI-252] = 22
CCc1cc(O)c(F)cc1-c1ccc2c(-c3nc4c([nH]3)CN(C(=O)NC3CC3)C4)n[nH]c2c1 [MDI-259] = 2.94

[Q] Give its IC50 value. Item: CCc1cc(O)c(F)cc1-c1ccc2c(-c3nc4c([nH]3)CN(CC3CCC3)C4)n[nH]c2c1 [MDI-210]
[A] 31.5

[Q] Give its IC50 value. Item: CCc1cc(O)c(F)cc1-c1ccc2c(-c3nc4c([nH]3)CN(C(=O)NC3CCC3)C4)n[nH]c2c1 [MDI-260]
[A] 8.98

[Q] Give its IC50 value. Item: CCc1cc(O)c(F)cc1-c1ccc2c(-c3nc4c([nH]3)CN(C(=O)NC)C4)n[nH]c2c1 [MDI-246]
[A] 1.52

[Q] Give its IC50 value. Item: CCc1cc(O)c(F)cc1-c1ccc2c(-c3nc4c([nH]3)CN(C3CCCC3)C4)n[nH]c2c1 [MDI-224]
[A] 16.1

[Q] Give its IC50 value. Item: CCc1cc(O)c(F)cc1-c1cc(C)c2c(-c3nc4c([nH]3)CN(C(=O)C3CC3)C4)n[nH]c2c1 [MDI-239]
[A] 19.2
